Biological target: T1, IL-18 receptors on HEK-Blue IL-18 reporter cells (UniProt Q13478 19-541; O95256 20-599, limits assumed)
T1 sequence (looked up) 1: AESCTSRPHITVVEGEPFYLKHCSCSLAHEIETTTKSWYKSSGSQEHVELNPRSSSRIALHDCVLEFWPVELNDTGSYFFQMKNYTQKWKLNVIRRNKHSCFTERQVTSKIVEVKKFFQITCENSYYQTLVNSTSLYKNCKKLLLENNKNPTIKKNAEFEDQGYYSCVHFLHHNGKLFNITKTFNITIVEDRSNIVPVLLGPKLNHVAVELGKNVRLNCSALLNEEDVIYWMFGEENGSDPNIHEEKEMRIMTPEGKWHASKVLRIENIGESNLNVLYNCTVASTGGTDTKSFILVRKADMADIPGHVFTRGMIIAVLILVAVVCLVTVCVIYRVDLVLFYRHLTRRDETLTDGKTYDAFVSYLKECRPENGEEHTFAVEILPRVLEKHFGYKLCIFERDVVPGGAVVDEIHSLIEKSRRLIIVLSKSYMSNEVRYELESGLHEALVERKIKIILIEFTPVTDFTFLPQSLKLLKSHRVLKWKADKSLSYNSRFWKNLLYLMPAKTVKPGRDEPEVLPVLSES
T1 sequence (looked up) 2: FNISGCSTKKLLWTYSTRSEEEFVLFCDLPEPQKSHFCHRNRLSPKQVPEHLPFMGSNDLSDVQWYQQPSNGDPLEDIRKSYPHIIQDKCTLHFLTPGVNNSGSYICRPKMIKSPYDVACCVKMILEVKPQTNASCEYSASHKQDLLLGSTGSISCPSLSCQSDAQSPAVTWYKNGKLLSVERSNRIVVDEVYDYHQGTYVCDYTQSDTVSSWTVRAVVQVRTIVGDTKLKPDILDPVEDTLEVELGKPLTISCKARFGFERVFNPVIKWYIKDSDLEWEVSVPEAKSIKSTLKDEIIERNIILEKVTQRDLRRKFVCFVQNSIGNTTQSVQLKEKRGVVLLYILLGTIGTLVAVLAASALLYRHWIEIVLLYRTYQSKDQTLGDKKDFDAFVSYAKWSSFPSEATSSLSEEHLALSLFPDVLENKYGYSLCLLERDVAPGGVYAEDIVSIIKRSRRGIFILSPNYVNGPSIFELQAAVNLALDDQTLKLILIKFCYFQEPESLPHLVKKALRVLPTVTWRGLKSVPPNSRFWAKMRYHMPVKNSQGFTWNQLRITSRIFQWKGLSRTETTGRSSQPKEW
Experiment: cell-based or functional assay

Binder	HEK-Blue activity, No BP, DF-100,000
IL-18 variant K53N, S55A, R104N, P107A, H109Y (ligand) YFGKLESKLSVIRNLNDQVLFIDQGNRPLFEDMTDSDMRDNAPRTIFIISMYNDAQPRGMAVTISVKSEKISTLSSENKIISFKEMNPPDNIKDTKSDIIFFQNSVAGYDNKMQFESSSYEGYFLASEKERDLFKLILKKEDELGDRSIMFTVQNED	0.13
IL-18 variant S36W, D37E, D40F, N41I, K53D, S55N (ligand) YFGKLESKLSVIRNLNDQVLFIDQGNRPLFEDMTDWEMRFIAPRTIFIISMYDDNQPRGMAVTISVKSEKISTLSSENKIISFKEMNPPDNIKDTKSDIIFFQRSVPGHDNKMQFESSSYEGYFLASEKERDLFKLILKKEDELGDRSIMFTVQNED	0.14
IL-18 variant K53H, S55Y, Q56H (ligand) YFGKLESKLSVIRNLNDQVLFIDQGNRPLFEDMTDSDMRDNAPRTIFIISMYHDYHPRGMAVTISVKSEKISTLSSENKIISFKEMNPPDNIKDTKSDIIFFQRSVPGHDNKMQFESSSYEGYFLASEKERDLFKLILKKEDELGDRSIMFTVQNED	0.1
IL-18 variant T34L, S36V, D40A, N41S, K53G, S55W (ligand) YFGKLESKLSVIRNLNDQVLFIDQGNRPLFEDMLDVDMRASAPRTIFIISMYGDWQPRGMAVTISVKSEKISTLSSENKIISFKEMNPPDNIKDTKSDIIFFQRSVPGHDNKMQFESSSYEGYFLASEKERDLFKLILKKEDELGDRSIMFTVQNED	0.19
IL-18 variant K53G, S55P, R104K, H109Y (ligand) YFGKLESKLSVIRNLNDQVLFIDQGNRPLFEDMTDSDMRDNAPRTIFIISMYGDPQPRGMAVTISVKSEKISTLSSENKIISFKEMNPPDNIKDTKSDIIFFQKSVPGYDNKMQFESSSYEGYFLASEKERDLFKLILKKEDELGDRSIMFTVQNED	0.12
IL-18 variant K53N, S55Y (ligand) YFGKLESKLSVIRNLNDQVLFIDQGNRPLFEDMTDSDMRDNAPRTIFIISMYNDYQPRGMAVTISVKSEKISTLSSENKIISFKEMNPPDNIKDTKSDIIFFQRSVPGHDNKMQFESSSYEGYFLASEKERDLFKLILKKEDELGDRSIMFTVQNED	0.09
IL-18 variant K53D, S55Q, H109Y (ligand) YFGKLESKLSVIRNLNDQVLFIDQGNRPLFEDMTDSDMRDNAPRTIFIISMYDDQQPRGMAVTISVKSEKISTLSSENKIISFKEMNPPDNIKDTKSDIIFFQRSVPGYDNKMQFESSSYEGYFLASEKERDLFKLILKKEDELGDRSIMFTVQNED	0.2
IL-18 variant K53N, S55H, H109F (ligand) YFGKLESKLSVIRNLNDQVLFIDQGNRPLFEDMTDSDMRDNAPRTIFIISMYNDHQPRGMAVTISVKSEKISTLSSENKIISFKEMNPPDNIKDTKSDIIFFQRSVPGFDNKMQFESSSYEGYFLASEKERDLFKLILKKEDELGDRSIMFTVQNED	0.1
IL-18 variant T34S, S36L, D37E, D40Y, N41M, K53T, S55K, P107K, H109Q (ligand) YFGKLESKLSVIRNLNDQVLFIDQGNRPLFEDMSDLEMRYMAPRTIFIISMYTDKQPRGMAVTISVKSEKISTLSSENKIISFKEMNPPDNIKDTKSDIIFFQRSVKGQDNKMQFESSSYEGYFLASEKERDLFKLILKKEDELGDRSIMFTVQNED	0.1
IL-18 variant T34S, S36Y, D37N, D40E, N41Q, K53Y, S55I (ligand) YFGKLESKLSVIRNLNDQVLFIDQGNRPLFEDMSDYNMREQAPRTIFIISMYYDIQPRGMAVTISVKSEKISTLSSENKIISFKEMNPPDNIKDTKSDIIFFQRSVPGHDNKMQFESSSYEGYFLASEKERDLFKLILKKEDELGDRSIMFTVQNED	0.09
IL-18 variant K53L, S55E (ligand) YFGKLESKLSVIRNLNDQVLFIDQGNRPLFEDMTDSDMRDNAPRTIFIISMYLDEQPRGMAVTISVKSEKISTLSSENKIISFKEMNPPDNIKDTKSDIIFFQRSVPGHDNKMQFESSSYEGYFLASEKERDLFKLILKKEDELGDRSIMFTVQNED	0.1
IL-18 variant K53T, S55G, P107A, H109Q (ligand) YFGKLESKLSVIRNLNDQVLFIDQGNRPLFEDMTDSDMRDNAPRTIFIISMYTDGQPRGMAVTISVKSEKISTLSSENKIISFKEMNPPDNIKDTKSDIIFFQRSVAGQDNKMQFESSSYEGYFLASEKERDLFKLILKKEDELGDRSIMFTVQNED	0.1
IL-18 variant K53D, S55L (ligand) YFGKLESKLSVIRNLNDQVLFIDQGNRPLFEDMTDSDMRDNAPRTIFIISMYDDLQPRGMAVTISVKSEKISTLSSENKIISFKEMNPPDNIKDTKSDIIFFQRSVPGHDNKMQFESSSYEGYFLASEKERDLFKLILKKEDELGDRSIMFTVQNED	0.09
